For reference, MIC measured on K. pneumoniae ATCC10031:

Recorded results for 3 molecules are shown here.
CC(C)C(=O)OC[C@@H]1COc2cccc3c2B(O1)O[C@@H]3CN.Cl: > 32 µg/mL
CC(C)C(=O)OC[C@H](COc1cccc2c1B(O)O[C@@H]2CN)OC(=O)C(C)C.Cl: > 32 µg/mL
CCC(=O)OC[C@@H]1COc2cccc3c2B(O1)O[C@@H]3CN.Cl: > 32 µg/mL

Please look up its MIC: Cl.NC[C@H]1OB2O[C@H](CO)COC3C=CC=C1C23 (stereo partly drawn) [Example 5, reference compound]
4 µg/mL

// same read-out, input: `CC(=O)OC[C@H](COc1cccc2c1B(O)O[C@@H]2CN)OC(C)=O.Cl`
> 32 µg/mL

// same read-out, input: `CC(C)(C)C(=O)OC[C@H](COc1cccc2c1B(O)O[C@@H]2CN)OC(=O)C(C)(C)C.Cl`
> 32 µg/mL

* * *

Run description: Pharmacokinetic study in rat (iv or oral gavage)
Type: in vivo, SD rats
Test context: in vivo; SD rat, iv 5 mg/kg, parent compound (Example 5) measured
Quantity: AUC

Please look up its AUC: Cl.NC[C@H]1OB2O[C@H](CO)COC3C=CC=C1C23 (stereo partly shown) [Example 5, reference compound]
5660 ng·h/mL
